Data provenance: paper PMC9763612

# assayedTarget: eqBChE (BChE from equine serum) (Equus caballus)
# Construct: BChE (E.C. 3.1.1.8, from equine serum); purchased Sigma-Aldrich; host or cells: equine serum
# Sequence (P81908 whole entry): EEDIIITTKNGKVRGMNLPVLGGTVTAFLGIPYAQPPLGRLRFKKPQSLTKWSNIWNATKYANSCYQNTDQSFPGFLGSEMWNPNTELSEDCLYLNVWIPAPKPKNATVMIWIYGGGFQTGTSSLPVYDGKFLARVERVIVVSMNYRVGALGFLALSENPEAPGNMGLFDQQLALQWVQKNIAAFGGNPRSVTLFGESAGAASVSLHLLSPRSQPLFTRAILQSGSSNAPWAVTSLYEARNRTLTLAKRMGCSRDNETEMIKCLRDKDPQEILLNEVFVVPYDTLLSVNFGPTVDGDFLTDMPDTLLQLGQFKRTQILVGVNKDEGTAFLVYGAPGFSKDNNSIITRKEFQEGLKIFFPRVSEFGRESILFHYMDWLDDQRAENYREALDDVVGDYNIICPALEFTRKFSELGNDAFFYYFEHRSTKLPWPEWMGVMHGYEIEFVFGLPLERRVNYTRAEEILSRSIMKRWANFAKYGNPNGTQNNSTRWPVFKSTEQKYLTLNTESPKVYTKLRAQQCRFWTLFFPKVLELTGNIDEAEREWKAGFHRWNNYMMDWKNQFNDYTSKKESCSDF
# testMethodNotes: biochemical
# runConditions: incubation time 25 min; mean ± SD, at least three independent experiments; read-out: IC50 eqBChE
pIC50: −log10 of the molar value.
measurementKind: pIC50

Query: Name the recorded pIC50 of the item FC(F)(F)c1cccc(-c2ccn(-c3ccccc3)c2)c1 in your answer.
Result: < 4.30

Query: Name the recorded pIC50 of the item COc1ccccc1-c1ccn(-c2ccccc2)c1 in your answer.
Result: 5.27

Query: Name the recorded pIC50 of the item Cc1cccc(-n2cccc2)c1 in your answer.
Result: < 4.30

Query: Name the recorded pIC50 of the item COC(=O)c1ccc(-n2cccc2)cc1 in your answer.
Result: < 4.30

Query: Name the recorded pIC50 of the item Clc1ccccc1-n1cccc1 in your answer.
Result: < 4.30

Query: Name the recorded pIC50 of the item CC(C)c1ccc(-n2cccc2)cc1 in your answer.
Result: < 4.30

Query: Name the recorded pIC50 of the item c1ccc2nc(-n3cccc3)cnc2c1 in your answer.
Result: < 4.30

Query: Name the recorded pIC50 of the item Cc1ccccc1-n1cccc1 in your answer.
Result: < 4.30

Query: Name the recorded pIC50 of the item c1ccc(-c2ccn(-c3ccccc3)c2)cc1 in your answer.
Result: < 4.30

Query: Name the recorded pIC50 of the item c1ccc(-c2ccc(-c3ccn(-c4ccccc4)c3)cc2)cc1 in your answer.
Result: 5.42

Query: Name the recorded pIC50 of the item c1ccc(Cc2ccn(-c3ccccc3)c2)cc1 in your answer.
Result: < 4.30
